Biological target: Oxysterols receptor LXR-alpha (Homo sapiens) (UniProt Q13133)
Sequence (whole entry): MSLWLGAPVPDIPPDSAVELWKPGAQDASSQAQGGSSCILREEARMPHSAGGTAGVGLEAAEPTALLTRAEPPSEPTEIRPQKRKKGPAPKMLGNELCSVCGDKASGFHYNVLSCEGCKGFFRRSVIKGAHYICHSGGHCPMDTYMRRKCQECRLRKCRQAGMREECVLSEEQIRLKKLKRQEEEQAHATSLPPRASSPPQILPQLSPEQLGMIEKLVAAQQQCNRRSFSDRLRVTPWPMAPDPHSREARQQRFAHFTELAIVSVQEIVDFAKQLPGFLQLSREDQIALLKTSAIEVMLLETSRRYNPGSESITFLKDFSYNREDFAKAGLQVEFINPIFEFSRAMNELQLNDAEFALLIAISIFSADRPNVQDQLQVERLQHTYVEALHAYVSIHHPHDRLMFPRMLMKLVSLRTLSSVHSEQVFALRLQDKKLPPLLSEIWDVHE
ASSAY_READOUT: RE

Examples with their reported RE follow.
[
  {
    "SMILES_DATA": "NC(=O)Cc1cccc(OCCCN(Cc2cccc(C(F)(F)F)c2)CC(c2ccccc2)c2ccccc2)c1",
    "RE": 0.7
  },
  {
    "SMILES_DATA": "NC(=O)Cc1cccc(OCCCN(Cc2cccc(C(F)(F)F)c2Cl)CC(c2ccccc2)c2ccccc2)c1",
    "RE": 1.1
  }
]

I: NC(=O)Cc1cccc(OCCCN(Cc2ccc(F)c(C(F)(F)F)c2)CC(c2ccccc2)c2ccccc2)c1
II: COc1ccc(CN(CCCOc2cccc(C(N)=O)c2)CC(c2ccccc2)c2ccccc2)cc1OC
Exercise: compare I and II ; which one has the greater RE? Lab log: write the label of the selected item as the result. I

----------
target: Oxysterols receptor LXR-alpha (Homo sapiens); assay: Ligand-dependent recruitment of steroid receptor co-activator 1 (SRC1) to Liver X receptor-alpha
pEC50: −log10 of the molar value.
ASSAY_READOUT: pEC50

[
  {
    "COMPOUND": "C[C@H](CC[C@@H]1OC1(C)C)[C@H]1CC[C@H]2[C@@H]3CC=C4C[C@@H](O)CC[C@]4(C)[C@H]3CC[C@]12C [24(S),25-EPOXYCHOLESTEROL]",
    "TESTED_ON": "Oxysterols receptor LXR-alpha (Homo sapiens)",
    "pEC50": 7.02
  }
]

1: COc1ccc(CN(CCCOc2cccc(CC(N)=O)c2)CC(c2ccccc2)c2ccccc2)c(OC)c1
2: NC(=O)Cc1cccc(OCCCN(Cc2ccc(F)c(C(F)(F)F)c2)CC(c2ccccc2)c2ccccc2)c1
3: COc1ccc(CN(CCCOc2cccc(C(N)=O)c2)CC(c2ccccc2)c2ccccc2)cc1OC
Order the entries by their reported pEC50, beginning at the minimum. I'd appreciate it if you listed the labels in the requested order. 1, 3, 2
(1: 6.18, 3: 6.59, 2: 7.07)
